// data source = PubChem BioAssay (NCI)

Tested on: K-562 leukemia
Assay: NCI tumour cell line growth inhibition, 48 h
Parameter Measured: TGI

Data point: "COC(=O)[C@H](CCSC)NC(=O)N[C@H](C)c1ccccc1" ; TGI = > 100 µM

Data point: "C=C(Br)CNC(=O)Nc1ccc(Cl)c(Cl)c1" ; TGI = 90.5 µM

Data point: c1ccc2c(c1)C1CCCCCC21N1CCOCC1 (stereo unspecified) ; TGI = > 100 µM

Data point: "CNC(=O)C1(N)c2ccccc2C=Cc2ccccc21" ; TGI = > 100 µM

Data point: "O=C(CSc1nnc(Cc2ccccc2)o1)Nc1ccccc1" ; TGI = > 100 µM

Data point: CC1=NNC(=O)C1C1CC(c2c[nH]c3ccccc23)=NNC1=O (stereo unspecified) ; TGI = > 100 µM

====

Tested on: HCC-2998 colon
Assay: NCI tumour cell line growth inhibition, 48 h
Where a SMILES comes first, the peptide text is derived from it. The star is where a group is joined. Boc = CC(C)(C)OC(=O)*
Parameter Measured: TGI

Data point: "O=C(CSc1nnc(Cc2ccccc2)o1)Nc1ccccc1" ; TGI = > 100 µM

Data point: Cc1ccc2c(C3Cc4ccccc4N3C(=O)/C=C\C(=O)O)c(C)[nH]c2c1 (stereo unspecified) ; TGI = > 100 µM

Data point: OCC1OC(n2cnc3c(N/N=C\c4ccccn4)ncnc32)C(O)C1O (stereo unspecified) ; TGI = > 100 µM

Data point: "COc1cc(C(=O)C/C(CCC(=O)Nc2ccccc2[N+](=O)[O-])=N\NC(N)=O)ccc1O" ; TGI = > 100 µM

Data point: "Cc1n[nH]c(=O)n1N1C(=O)CCCC1=O" ; TGI = > 100 µM

Data point: "Cc1ccc(/C=C/C(=O)C(C)(C)CN2CCCCC2)cc1" ; TGI = 28.8 µM

Data point: "COc1cc2c3c(c1)CCCN3CCC2" ; TGI = > 10 µM

Data point: "O=C1C=CC2(C=C1)O[C@H](Cc1ccccc1)[C@@H](Cc1ccccc1)O2" ; TGI = 11.1 µM

Data point: "O=C(O)c1cc2c(ncc3c(=O)n(-c4ccccc4)[nH]c32)s1" ; TGI = > 100 µM

Data point: CCN(CC)CC1CCCCN1CC(=O)N1c2ccccc2C(=O)Nc2cccnc21 (stereo unspecified) ; TGI = > 100 µM

Data point: "O=C(/C=C\c1cccc([N+](=O)[O-])c1)/C=C/c1cccc([N+](=O)[O-])c1" ; TGI = 6.9 µM

Data point: "CCN(CC)c1ccc2cc(C(=O)Nc3ccc4[nH]c(C(=O)N5C[C@@H](CCl)c6c5cc(OC(=O)Nc5ccccc5)c5[nH]cc(C)c65)cc4c3)oc2c1" ; TGI = > 1000 µM

Data point: "C[C@]12CC[C@@H]3c4cc(OCC(F)(F)F)c(O)cc4CC[C@H]3[C@@H]1CC[C@@H]2O" ; TGI = 16.9 µM

Data point: "NCCSS(=O)(=O)CCN" ; TGI = > 100 µM

Data point: "COc1ccc(-c2cc(-c3ccc(C)cc3)nc3nc(=S)[nH]c(N)c23)cc1" ; TGI = 42.9 µM

Data point: "CC1(C)C=Cc2c(cc(O)c3c(=O)c4cc(Cl)ccc4[nH]c23)O1" ; TGI = > 10 µM

Data point: "O=S1(=O)OCCOS(=O)(=O)C1(F)Br" ; TGI = > 100 µM

Data point: COC(=O)C1CC2CC(=NNC(N)=O)CC2C1 (stereo unspecified) ; TGI = > 100 µM

Data point: CC(C)(C)OC(=O)NC(Cc1ccc(O)cc1)C(=O)N1CCCC1C(=O)O (stereo not drawn) (Boc-Tyr-Pro-OH; configuration not given here) ; TGI = > 100 µM

Data point: O=c1[nH]c(=O)n(C2CC(O)C(COP(=O)(OCc3ccc([N+](=O)[O-])o3)N(CCCCCl)CC(O)CO)O2)cc1F (stereo unspecified) ; TGI = > 100 µM

Data point: "CC(=O)/C=C/c1cn(C(=O)OC(C)(C)C)c2ccc(Br)cc12" ; TGI = 37.4 µM

====

Tested on: 786-0 renal
Assay: NCI tumour cell line growth inhibition, 48 h
For each record, write down the corresponding TGI.

Data point: COc1ccc(C2SCC(=O)N2c2ccc(-c3ccc(-n4c(-c5ccccc5)nc5ccccc5c4=O)cc3)cc2)cc1OC (stereo unspecified) ; TGI = > 100 µM

Data point: O=c1[nH]c(=O)n(C2CC(O)C(COP(=O)(OCc3ccc([N+](=O)[O-])o3)N(CCCCCl)CC(O)CO)O2)cc1F (stereo unspecified) ; TGI = > 100 µM

Data point: "CC1(O)C=CC(=O)C=C1" ; TGI = 49.6 µM

Data point: "NNC(=O)CS(=O)(=O)Nc1ncccn1" ; TGI = > 100 µM

Data point: "O=c1[nH]cc(COCCCO)c(=O)[nH]1" ; TGI = > 100 µM

Data point: C1CCC([PH+](C2CCCCC2)C2CCCCC2[PH+](C2CCCCC2)C2CCCCC2)CC1.[Au].[CH-]1CCCCC1CC1CCCC[N-]1 (stereo unspecified) ; TGI = 2.02 µM

====

Test system: OVCAR-3 ovarian
Experiment: NCI tumour cell line growth inhibition, 48 h; in the data active means GI50 below about 0.43 µM; inactive means the rest
# valid calls are T = active, F = inactive; nothing else

Recorded test outcome, item "CN1CCN(C(=O)c2cc(-c3ccc4ncnc(N5CCc6cc(F)c(Cl)cc65)c4c3)cnc2N)CC1"
T

Recorded test outcome, item "COc1cc2c3c(n(C)c(=O)c2cc1OC)-c1cc2c(cc1/C3=C\CCCCN1C(=O)c3ccccc3C1=O)OCO2"
F

Recorded test outcome, item "O=C(/C=C\c1cccc([N+](=O)[O-])c1)/C=C/c1cccc([N+](=O)[O-])c1"
F

Recorded test outcome, item "O=C1c2cccnc2C(=O)c2c1c(C(=O)NCCCN1CCCCC1)c1ccccn21"
T

Recorded test outcome, item OCc1ccc(N2CCCC2c2ccccc2)cc1Cl (configuration not stated)
F

Recorded test outcome, item "O=C1/C(=C/c2ccccc2[N+](=O)[O-])Cc2ccccc21"
F

Recorded test outcome, item CCc1ccc2c(c1)N(CCO)C1=C(C(=O)OC1)C2c1cccc(Br)c1 (configuration not stated)
T

Recorded test outcome, item "Nc1nc(OCc2ccccc2)c2[nH]cnc2n1"
F

Recorded test outcome, item O=C1CCC(N2Cc3cc(CNC(=O)C(F)(F)c4ccc(Cl)cc4)ccc3C2=O)C(=O)N1 (configuration not stated)
F

Recorded test outcome, item "O=C(OCc1ccc2ccccc2n1)c1cn(C2CC2)c2cc(N3CCN(Cc4ccc5ccccc5n4)CC3)c(F)cc2c1=O"
F

Recorded test outcome, item "O=[N+]([O-])c1ccc(C=Cc2ccccc2)cc1.[C-]#[O+].[C-]#[O+].[C-]#[O+].[Cr]"
F

Recorded test outcome, item "C[C@@H]1CN(Cc2ccc(F)cc2)[C@@H](C)CN1C(=O)c1cc2c(C(=O)C(=O)N(C)C)cn(C)c2cc1Cl"
F

Recorded test outcome, item "Fc1ccc(/C=N/n2c(-c3ccc(F)c(Cl)c3)nn(CNc3ccccc3C(F)(F)F)c2=S)cc1"
F

Recorded test outcome, item O=C1NC(=O)C(N2C(=O)c3ccccc3C2=O)CC1O (configuration not stated)
F

Recorded test outcome, item "CC1=C2[C@@H](CC1)[C@]1(C)O[C@@](c3ccccc3)(C[C@H]1OC(=O)CO)[C@H]2OC(=O)/C=C/c1ccccc1"
F

Recorded test outcome, item COc1ccc2c(c1)N(CCO)C1=C(C(=O)OC1)C2c1cccc(F)c1 (configuration not stated)
T

Recorded test outcome, item CC(C)C[C@H](NC(=O)CNC(=O)c1cc(Cl)ccc1Cl)B1OC(=O)CC(CC(=O)O)(C(=O)O)O1 (some centres not stated)
T

====

For each record, write down the corresponding TGI.
System: EKVX NSCLC
Assay: NCI tumour cell line growth inhibition, 48 h

Data point: O=C1OC(Cc2ccccc2)(N2CCCC2=O)C1c1ccccc1 (stereo unspecified) ; TGI = > 100 µM

Data point: O=c1nc(NC2CCCCO2)ccn1CCO (stereo unspecified) ; TGI = > 100 µM

Data point: C=CC1(NC(=O)c2ccccc2)CCC(C(C)(C)C)CC1 (stereo unspecified) ; TGI = > 83.2 µM

Data point: "CC(C)(C)OC(=O)N/N=C(/N)Cc1ccc(Cl)cc1" ; TGI = > 100 µM

Data point: "CC1=C2[C@@H](CC1)[C@]1(C)O[C@@](c3ccccc3)(C[C@H]1OC(=O)CO)[C@H]2OC(=O)/C=C/c1ccccc1" ; TGI = 41.4 µM

Data point: "COc1ccc(C(=O)/C=C/c2ccc(O)c(O)c2)c(OC)c1" ; TGI = > 79.6 µM

Data point: CCC1(c2ccccc2)C(=O)N=C(c2ccccc2)N1CCc1ccccc1 (stereo unspecified) ; TGI = > 100 µM

Data point: "CCOc1ccccc1C(=O)N1CCN(c2cc(Cl)cc(Cl)c2)CC1" ; TGI = 17.3 µM

Data point: "Cc1n[nH]c(=O)n1N1C(=O)CCCC1=O" ; TGI = > 100 µM

Data point: "O=C(OCc1ccc2ccccc2n1)c1cn(C2CC2)c2cc(N3CCN(Cc4ccc5ccccc5n4)CC3)c(F)cc2c1=O" ; TGI = > 100 µM

Data point: "Cc1cc(C)c(-n2[nH]c(=O)n(C)c2=O)c(C)c1" ; TGI = > 100 µM
